For each entry below, report its kd ratio pH 7.4/6.0 value.
# Tested Target: T1, human FcRn/b2M (human, UniProt P61769 21-119, biotinylated)
# T1 construct: bought recombinant biotinylated protein (ACRO FCM-H82W4 or Immunitrack ITF01); also called hFcRn; hFcRn/hb2M
# T1 sequence (chain, as listed by the source limits assumed, chain 1 of 2): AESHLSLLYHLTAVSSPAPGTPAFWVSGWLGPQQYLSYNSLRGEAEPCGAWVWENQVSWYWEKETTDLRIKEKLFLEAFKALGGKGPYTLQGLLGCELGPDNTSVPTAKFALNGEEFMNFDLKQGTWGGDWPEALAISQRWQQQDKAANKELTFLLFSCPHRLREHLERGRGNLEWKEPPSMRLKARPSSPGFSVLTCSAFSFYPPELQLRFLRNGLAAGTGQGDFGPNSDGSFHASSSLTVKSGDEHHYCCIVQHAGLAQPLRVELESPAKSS
# T1 sequence (P61769 21-119 limits assumed, chain 2 of 2): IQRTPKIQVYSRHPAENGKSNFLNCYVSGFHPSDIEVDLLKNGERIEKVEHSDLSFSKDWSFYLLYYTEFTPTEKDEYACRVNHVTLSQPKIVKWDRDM
# Experiment Summary: SPR off-rate; pH 7.4 vs pH 6.0;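 further: surface plasmon resonance with diluted periplasmic extracts flowed over ligand surfaces, 120 s association and 600–3600 s dissociation at 25 °C, running buffer containing 150 mM NaCl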
Answers are plain numbers.

Completed entries (count: 3):
{"Binder": "T0263018B11 G26D (VHH, name in Kabat numbering, FLAG3-His6 tagged) VHH: EVQLVESGGGVVQPGGSLRLSCAASDFTFSSYAMYWVRQAPGKGLEWVSAISSGGGSTDYADSVKGRFTISRDNSKNTLYLQMNSLRPEDTALYYCAADTLYTSLTWYSYWGQGTLVTVSS", "kd ratio pH 7.4/6.0": 53}
{"Binder": "T0263018B11 A33Q (VHH, name in Kabat numbering, FLAG3-His6 tagged) VHH: EVQLVESGGGVVQPGGSLRLSCAASGFTFSSYQMYWVRQAPGKGLEWVSAISSGGGSTDYADSVKGRFTISRDNSKNTLYLQMNSLRPEDTALYYCAADTLYTSLTWYSYWGQGTLVTVSS", "kd ratio pH 7.4/6.0": 36}
{"Binder": "T0263018B11 S52H (VHH, name in Kabat numbering, FLAG3-His6 tagged) VHH: EVQLVESGGGVVQPGGSLRLSCAASGFTFSSYAMYWVRQAPGKGLEWVSAIHSGGGSTDYADSVKGRFTISRDNSKNTLYLQMNSLRPEDTALYYCAADTLYTSLTWYSYWGQGTLVTVSS", "kd ratio pH 7.4/6.0": 46}

Now look at this one.
Task item: Given the entry T0263018B11 S31K (VHH, name in Kabat numbering, FLAG3-His6 tagged) VHH: EVQLVESGGGVVQPGGSLRLSCAASGFTFSKYAMYWVRQAPGKGLEWVSAISSGGGSTDYADSVKGRFTISRDNSKNTLYLQMNSLRPEDTALYYCAADTLYTSLTWYSYWGQGTLVTVSS , report its measured kd ratio pH 7.4/6.0.
Reply: 37
